tested on: STAT3; experiment: STAT3 transcription inhibition test (reporter gene method, oncostatin M stimulation); type: cell-based; conditions: Homo sapiens; compound at 100 μM; STAT3 reporter HeLa stable cell line; oncostatin M 10 ng/mL, 4 hours; read-out: STAT3 transcription inhibitory activity (%)
assay-readout: inhibition at 100 µM (%)

In [3]: df
Out[3]:
                    structure_smiles_string  measurement_target  readout_unit  operator_symbol  value_reported
0  Cc1cccc2c(C(=O)Nc3nnc(-c4ccco4)o3)cc(-c3ccccc3)nc12               STAT3             %                =              77
1  CCCCOc1cc(C(=O)Nc2nnc(-c3ccco3)o2)c2ccccc2n1               STAT3             %                =              57
2  O=C(Nc1nnc(-c2ccco2)o1)c1cc(-c2ccc(OC(F)F)cc2)nc2ccccc12               STAT3             %                >             100
3  O=C(Nc1nnc(-c2ccc(Cl)cc2)o1)c1cc(-c2ccccc2)nc2ccccc12               STAT3             %                >             100
4  O=C(Nc1nnc(-c2ccco2)o1)c1cc(-c2ccco2)nc2ccccc12               STAT3             %                =              68
5  O=C(Nc1nnc(-c2ccco2)o1)c1cc(-c2ccccc2O)nc2ccccc12               STAT3             %                >             100
6  O=C(Nc1nnc(-c2ccccc2)o1)c1cc(-c2ccccc2)nc2ccccc12               STAT3             %                >             100
7  Cc1ccc(-c2cc(C(=O)Nc3nnc(-c4ccncc4)s3)c3ccccc3n2)o1               STAT3             %                =              85
8  CCC(=O)Nc1ccc2nc(-c3ccccc3)cc(C(=O)Nc3nnc(-c4ccco4)o3)c2c1               STAT3             %                =              72

---

test system: STAT3; experiment: STAT3 transcription inhibition test (reporter gene method, oncostatin M stimulation); assay type: cell-based; details: Homo sapiens; compound at 100 μM; STAT3 reporter HeLa stable cell line; oncostatin M 10 ng/mL, 4 hours; read-out: STAT3 transcription inhibitory activity (%)
assay-readout: inhibition at 100 µM

In [3]: df
Out[3]:
                                    compound  measurement_target         assay_readout  value_reported
 0  O=C(Nc1nnc(-c2ccco2)o1)c1cc(-c2ccco2)nc2c(Cl)cccc12 [Ia-79]               STAT3  inhibition at 100 µM          > 100%
 1  O=C(Nc1nnc(-c2ccco2)o1)c1cc(-c2ccccc2)nc2ccc(-c3ccsc3)cc12 [Ia-99]               STAT3  inhibition at 100 µM             73%
 2  COc1ccc(-c2nnc(NC(=O)c3cc(-c4ccccc4)nc4ccc(OC(F)(F)F)cc34)o2)cc1 [Ia-117]               STAT3  inhibition at 100 µM             87%
 3  O=C(Nc1nnc(-c2ccco2)o1)c1cc(-c2ccccc2)nc2ccc(-c3cccnc3)cc12 [Ia-100]               STAT3  inhibition at 100 µM             92%
 4  Cc1ccc2nc(-c3cccs3)cc(C(=O)Nc3nnc(-c4ccco4)o3)c2c1 [Ia-29]               STAT3  inhibition at 100 µM             65%
 5  O=C(Nc1nnc(-c2ccco2)o1)c1cc(-c2ccccc2)nc2ccc(OC(F)(F)F)cc12 [Ia-71]               STAT3  inhibition at 100 µM          > 100%
 6  Nc1ccccc1-c1cc(C(=O)Nc2nnc(-c3ccco3)o2)c2ccccc2n1 [Ia-40]               STAT3  inhibition at 100 µM             62%
 7  O=C(Nc1nnc(-c2ccco2)o1)c1cc(N2CCCCC2)nc2ccccc12 [Ia-14]               STAT3  inhibition at 100 µM             63%
 8  O=C(Nc1nnc(-c2ccco2)o1)c1cc(-c2cccs2)nc2c(Cl)cccc12 [Ia-32]               STAT3  inhibition at 100 µM             90%
 9  COc1ccc(-c2cc(C(=O)Nc3nnc(-c4ccco4)o3)c3ccccc3n2)cc1OC [Ia-57]               STAT3  inhibition at 100 µM          > 100%
10  O=C(Nc1nnc(-c2ccncc2)s1)c1cc(-c2ccccc2)nc2ccc(OC(F)(F)F)cc12 [Ib-8]               STAT3  inhibition at 100 µM             65%
11  O=C(Nc1nnc(-c2ccco2)o1)c1cc(-c2ccccc2Cl)nc2ccccc12 [Ia-37]               STAT3  inhibition at 100 µM            100%
12  O=C(Nc1nnc(-c2cccs2)o1)c1cc(-c2ccccc2)nc2ccccc12 [Ia-a]               STAT3  inhibition at 100 µM             86%
13  COc1ccc(-c2cc(C(=O)Nc3nnc(-c4ccco4)o3)c3ccccc3n2)cc1 [Ia-51]               STAT3  inhibition at 100 µM          > 100%
14  O=C(Nc1nnc(-c2ccccc2)o1)c1cc(-c2ccccc2)nc2ccc(OC(F)(F)F)cc12 [Ia-111]               STAT3  inhibition at 100 µM          > 100%
15  Cc1ccc2nc(-c3ccccc3)cc(C(=O)Nc3nnc(-c4ccco4)o3)c2c1 [Ia-70]               STAT3  inhibition at 100 µM          > 100%
16  COc1ccc(OC)c(-c2cc(C(=O)Nc3nnc(-c4ccncc4)s3)c3ccccc3n2)c1 [Ib-c]               STAT3  inhibition at 100 µM          > 100%

---

test system: STAT3; test: STAT3 transcription inhibition test (reporter gene method, oncostatin M stimulation); assay type: cell-based; conditions: Homo sapiens; compound at 100 μM; STAT3 reporter HeLa stable cell line; oncostatin M 10 ng/mL, 4 hours; read-out: STAT3 transcription inhibitory activity (%)
Consider the reported inhibition at 100 µM of an entry and match it to a band in low: < 70%; intermediate: ≥ 70% and < 90%; high: ≥ 90%

In [3]: df
Out[3]:
                     structure_smiles_string   label_value
 0  O=C(Nc1nnc(-c2ccco2)o1)c1cc(-c2ccc3c(c2)OCO3)nc2ccccc12          high
 1  CC(C)(C)OC(=O)c1ccc(-c2cc(C(=O)Nc3nnc(-c4ccco4)o3)c3ccccc3n2)cc1          high
 2  O=C(Nc1nnc(-c2ccco2)o1)c1cc(-c2cccc3ccccc23)nc2ccccc12          high
 3  O=C(Nc1nnc(-c2ccco2)o1)c1cc(-c2ccccc2)nc2ccc(-c3ccccc3)cc12          high
 4  O=C(Nc1nnc(-c2ccco2)o1)c1cc(-c2ccc(Cl)cc2)nc2ccccc12          high
 5  O=C(Nc1nnc(-c2ccco2)o1)c1cc(-c2cccc([N+](=O)[O-])c2)nc2ccccc12           low
 6  Cc1ccc(-c2cc(C(=O)Nc3nnc(-c4ccccc4)o3)c3ccccc3n2)cc1  intermediate
 7  CN(C)CCOc1ccc2nc(-c3ccccc3)cc(C(=O)Nc3nnc(-c4ccco4)o3)c2c1  intermediate
 8  O=C(Nc1nnc(-c2ccoc2)o1)c1cc(-c2ccccc2)nc2ccccc12          high
 9  Cc1c(Cl)ccc2c(C(=O)Nc3nnc(-c4ccco4)o3)cc(-c3ccccc3)nc12  intermediate
10  O=C(Nc1nnc(Br)s1)c1cc(-c2ccccc2)nc2ccccc12          high
11  O=C(Nc1nnc(-c2ccco2)o1)c1cc(-c2ccc([N+](=O)[O-])cc2)nc2ccccc12          high
12  Cc1cc(C)c2nc(-c3cccs3)cc(C(=O)Nc3nnc(-c4ccco4)o3)c2c1           low
13  O=C(Nc1nnc(-c2ccco2)o1)c1cc(-c2ccccc2)nc2cc(Cl)ccc12          high
14  CC(C)(C)OC(=O)c1cccc(-c2cc(C(=O)Nc3nnc(-c4ccco4)o3)c3ccccc3n2)c1          high
15  O=C(Nc1nnc(Cc2ccccc2)o1)c1cc(-c2ccccc2)nc2ccccc12          high
16  Cc1cc(-c2cc(C(=O)Nc3nnc(-c4ccncc4)s3)c3cc(Cl)ccc3n2)c(C)s1          high
17  O=C(Nc1nnc(-c2ccco2)o1)c1cc(-c2ccccc2)nc2ccccc12           low
18  O=C(Nc1nnc(-c2ccco2)o1)c1cc(-c2ccc(F)cc2)nc2ccccc12  intermediate
19  O=C(Nc1nnc(-c2ccco2)o1)c1cc(-c2ccc(O)cc2)nc2ccccc12  intermediate
20  O=C(Nc1nnc(-c2ccncc2)s1)c1cc(-c2cccnc2)nc2ccc(Cl)cc12  intermediate
21  O=C(Nc1nnc(-c2ccco2)o1)c1cc(-c2ccccc2)nc2ccc(-c3ccc(O)cc3)cc12          high
22  Cc1ccc(-c2cc(C(=O)Nc3nnc(-c4ccco4)o3)c3ccccc3n2)c(C)c1          high
23  O=C(Nc1nnc(-c2ccco2)o1)c1cc(-c2ccccc2)nc2ccc(OCc3ccccc3)cc12          high
24  O=C(Nc1nnc(-c2ccco2)o1)c1cc(-c2cccs2)nc2ccc(Cl)cc12           low
25  O=C(Nc1nnc(-c2ccccc2Cl)o1)c1cc(-c2ccccc2)nc2ccc(OC(F)(F)F)cc12          high
26  O=C(Nc1nnc(-c2ccco2)s1)c1cc(-c2ccccc2)nc2ccccc12           low
27  COc1ccc2nc(-c3ccccc3)cc(C(=O)Nc3nnc(-c4ccco4)o3)c2c1          high
28  O=C(Nc1nnc(-c2ccco2)o1)c1cc(-c2ccccc2)nc2c(Cl)cc(Cl)cc12          high
29  O=C(Nc1nnc(-c2ccco2)o1)c1cc(-c2ccccc2)nc2ccc(-c3ccncc3)cc12          high
